target: Cytochrome P450 3A4 (Homo sapiens)
Sequence (P08684 whole entry): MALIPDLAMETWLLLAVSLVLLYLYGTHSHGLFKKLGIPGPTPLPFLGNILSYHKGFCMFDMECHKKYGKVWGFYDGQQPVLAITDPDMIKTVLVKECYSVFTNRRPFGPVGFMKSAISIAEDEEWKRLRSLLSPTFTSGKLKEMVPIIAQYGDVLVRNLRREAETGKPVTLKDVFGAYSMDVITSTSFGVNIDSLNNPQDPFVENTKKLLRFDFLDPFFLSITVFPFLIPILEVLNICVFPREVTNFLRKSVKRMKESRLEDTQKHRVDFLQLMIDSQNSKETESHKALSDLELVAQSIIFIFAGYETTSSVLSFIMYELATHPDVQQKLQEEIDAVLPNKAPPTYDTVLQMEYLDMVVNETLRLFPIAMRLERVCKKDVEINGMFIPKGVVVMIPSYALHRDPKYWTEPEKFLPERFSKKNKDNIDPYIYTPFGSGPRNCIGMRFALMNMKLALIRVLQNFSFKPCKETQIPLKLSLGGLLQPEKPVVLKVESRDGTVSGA
AC50 by entry:

Here is how some compounds turned out for AC50.
compound: Cc1nc2cnc(N3CCNCC3)nc2n(-c2ccccc2)c1=O
AC50: 31.6 µM (inconclusive)

compound: Cc1cc2cc(CNC(=O)CC(C)C)ccc2n1C
AC50: 15.8 µM (inconclusive)

compound: O=C(CCc1ccccc1)Nc1nncs1
AC50: 12.6 µM (inconclusive)

compound: O=C(O)c1ccccc1-c1ccccc1C(=O)Nc1ccccc1
AC50: 28.2 µM (inconclusive)

Input: Request - read-out AC50 | tested on Cytochrome P450 3A4 (Homo sapiens) | compound `Cc1cc(-c2cccc([N+](=O)[O-])c2)nc2ccc3ccccc3c12`
Output: 3.16 µM (inconclusive)

Input: Short answer please: AC50, Cytochrome P450 3A4 (Homo sapiens), entry `O=c1c2ccccc2nc2n1CC/C2=C\c1ccccc1[N+](=O)[O-]`
Output: 10 µM (inconclusive)

Input: Give Cytochrome P450 3A4 (Homo sapiens) AC50 for `C/C(CCN1CCc2nc(-c3ccccc3)c(-c3ccccc3)cc2C1)=N\OC[C@@H](C)[C@H](OCc1ccccc1)C(C)C`
Output: 3.98 µM (inconclusive)

Input: Which AC50 is reported with Cytochrome P450 3A4 (Homo sapiens) for this entry: `CS(=O)(=O)c1ccccc1COC(=O)Nc1ccc(Cl)cc1` ?
Output: 12.6 µM (inconclusive)

Input: Find AC50 (Cytochrome P450 3A4 (Homo sapiens)) for the entry CC[C@H]1C2=C3C(CC[C@H]4C(OC)OC[C@](C)([C@@H]34)N(C(=O)OC(C)(C)C)C2)C(CO)C1CO (stereo partly specified)
Output: 10 µM (inconclusive)

Input: # query: AC50 | item COC(=O)C(C)Sc1nc(O)c2cnn(-c3ccc(C)cc3)c2n1 (stereo unspecified) | system: Cytochrome P450 3A4 (Homo sapiens)
Output: 14.1 µM (inconclusive)

Input: Identify the measured AC50 of `COc1ccc(OC)c(S(=O)(=O)N2CCC(C(=O)NCCc3ccccc3)CC2)c1` for Cytochrome P450 3A4 (Homo sapiens).
Output: 39.8 µM (inconclusive)

Input: Which measured AC50 belongs to `COc1ccc(C2=C(C#N)C(=O)OC2)cc1` , tested on Cytochrome P450 3A4 (Homo sapiens)?
Output: 31.6 µM (inconclusive)

Input: Can you look up AC50 on Cytochrome P450 3A4 (Homo sapiens) for `O=C(O)c1cc(S(=O)(=O)N2CCCCC2)ccc1F` ?
Output: 1.26 µM (inconclusive)

Input: Quick check: AC50 on Cytochrome P450 3A4 (Homo sapiens), item `Cc1cccc(C)c1OC[C@@H](N)C(C)C` ?
Output: 20 µM (inconclusive)

Input: What value of AC50 on Cytochrome P450 3A4 (Homo sapiens) does CC1=C(C(=O)OCc2ccccc2)C(c2ccc3ccccc3c2)NC(=O)N1CCCCCC(=O)O (stereo unspecified) have?
Output: 10 µM (inconclusive)

Input: Please provide the recorded AC50 for CCc1ccc(N2CC(C)Cn3c2nc2c3c(=O)n(CCN3CCOCC3)c(=O)n2C)cc1 (stereo unspecified) , tested on Cytochrome P450 3A4 (Homo sapiens).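 Note: CYP3A4 tested as one member of a cytochrome P450 panel screen.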
Output: 39.8 µM (inconclusive)
